# assayProtocol: in vitro
# conditionDetails: calf serum
Where a SMILES comes first, the peptide text is derived from it.
measuredProperty: metabolised at 1 h, 100 μg/mL

Lookup: I have this molecule here, CC[C@H](C)[C@H](NC(=O)[C@H](CCCNC(=N)N)NC(=O)[C@H](CCCNC(=N)N)NC(=O)[C@@H](Cc1ccccc1)NC(=O)[C@H](CC(C)C)NC(=O)[C@H](CCCNC(=N)N)NC(=O)[C@@H](N)CCCNC(=N)N)C(=O)N[C@@H](CC(C)C)C(=O)N[C@@H](CCCNC(=N)N)C(=O)N[C@@H](Cc1c[nH]c2ccccc12)C(=O)N[C@@H](CC(C)C)C(N)=O [RW-BP100-4D] (HELM PEPTIDE1{R.R.L.[dF].R.R.I.L.R.W.L.[am]}$$$$V2.0) , and I need its recorded metabolised at 1 h, 100 μg/mL.
Found: > 90%

* * *

# Tested on: MAC-T cells
# conditionDetails: peptide 150 μg/mL, 24 h, WST-1, mean ± SD, three repeats
Where a SMILES comes first, the peptide text is derived from it.
Exercise: state measured Cell survival rate, MAC-T for each of the compounds provided.
Give bare numbers, in %.

Some solved cases for reference:
>>> recordedvalue("CC[C@H](C)[C@H](NC(=O)[C@@H](CCCNC(=N)N)NC(=O)[C@H](CCCNC(=N)N)NC(=O)[C@H](Cc1ccccc1)NC(=O)[C@H](CC(C)C)NC(=O)[C@H](CCCNC(=N)N)NC(=O)[C@@H](N)CCCNC(=N)N)C(=O)N[C@@H](CC(C)C)C(=O)N[C@@H](CCCNC(=N)N)C(=O)N[C@@H](Cc1c[nH]c2ccccc12)C(=O)N[C@@H](CC(C)C)C(N)=O [RW-BP100-6D] (HELM PEPTIDE1{R.R.L.F.R.[dR].I.L.R.W.L.[am]}$$$$V2.0)")
58.87
>>> recordedvalue("CC[C@H](C)[C@H](NC(=O)[C@H](CCCNC(=N)N)NC(=O)[C@H](CCCNC(=N)N)NC(=O)[C@H](Cc1ccccc1)NC(=O)[C@H](CC(C)C)NC(=O)[C@H](CCCNC(=N)N)NC(=O)[C@@H](N)CCCNC(=N)N)C(=O)N[C@@H](CC(C)C)C(=O)N[C@@H](CCCNC(=N)N)C(=O)N[C@H](Cc1c[nH]c2ccccc12)C(=O)N[C@@H](CC(C)C)C(N)=O [RW-BP100-10D] (HELM PEPTIDE1{R.R.L.F.R.R.I.L.R.[dW].L.[am]}$$$$V2.0)")
94.41
>>> recordedvalue("CC[C@H](C)[C@H](NC(=O)[C@H](CCCNC(=N)N)NC(=O)[C@H](CCCNC(=N)N)NC(=O)[C@H](Cc1ccccc1)NC(=O)[C@H](CC(C)C)NC(=O)[C@H](CCCNC(=N)N)NC(=O)[C@H](N)CCCNC(=N)N)C(=O)N[C@@H](CC(C)C)C(=O)N[C@@H](CCCNC(=N)N)C(=O)N[C@@H](Cc1c[nH]c2ccccc12)C(=O)N[C@@H](CC(C)C)C(N)=O [RW-BP100-1D] (HELM PEPTIDE1{[dR].R.L.F.R.R.I.L.R.W.L.[am]}$$$$V2.0)")
52.71

Pending compound:
Lookup: I have this compound here, CC[C@H](C)[C@H](NC(=O)[C@H](CCCNC(=N)N)NC(=O)[C@H](CCCNC(=N)N)NC(=O)[C@H](Cc1ccccc1)NC(=O)[C@@H](CC(C)C)NC(=O)[C@H](CCCNC(=N)N)NC(=O)[C@@H](N)CCCNC(=N)N)C(=O)N[C@@H](CC(C)C)C(=O)N[C@@H](CCCNC(=N)N)C(=O)N[C@@H](Cc1c[nH]c2ccccc12)C(=O)N[C@@H](CC(C)C)C(N)=O [RW-BP100-3D] (HELM PEPTIDE1{R.R.[dL].F.R.R.I.L.R.W.L.[am]}$$$$V2.0) , and I need its recorded Cell survival rate, MAC-T.
Found: 50.63

* * *

# System: MAC-T cells
# conditionDetails: peptide 150 μg/mL, 24 h, WST-1, mean ± SD, three repeats
Where a SMILES comes first, the peptide text is derived from it.
measuredProperty: Cell survival rate, MAC-T
In your response, the unit should come after the numeric value.

Lookup: I have this molecule here, CC[C@@H](C)[C@@H](NC(=O)[C@@H](CCCNC(=N)N)NC(=O)[C@@H](CCCNC(=N)N)NC(=O)[C@@H](Cc1ccccc1)NC(=O)[C@@H](CC(C)C)NC(=O)[C@@H](CCCNC(=N)N)NC(=O)[C@H](N)CCCNC(=N)N)C(=O)N[C@H](CC(C)C)C(=O)N[C@H](CCCNC(=N)N)C(=O)N[C@H](Cc1c[nH]c2ccccc12)C(=O)N[C@H](CC(C)C)C(N)=O [RW-BP100-All-D] (HELM PEPTIDE1{[dR].[dR].[dL].[dF].[dR].[dR].[dI].[dL].[dR].[dW].[dL].[am]}$$$$V2.0) , and I need its recorded Cell survival rate, MAC-T.
Found: 14.23 ± 2.37%

* * *

# System: MAC-T cells
# conditionDetails: peptide 150 μg/mL, 24 h, WST-1, mean ± SD, three repeats
Where a SMILES comes first, the peptide text is derived from it.
measuredProperty: Cell survival rate, MAC-T (%)
One number for each entry, in %.

>>> recordedvalue("CC[C@H](C)[C@H](NC(=O)[C@H](CCCNC(=N)N)NC(=O)[C@H](CCCNC(=N)N)NC(=O)[C@H](Cc1ccccc1)NC(=O)[C@H](CC(C)C)NC(=O)[C@H](CCCNC(=N)N)NC(=O)[C@@H](N)CCCNC(=N)N)C(=O)N[C@@H](CC(C)C)C(=O)N[C@@H](CCCNC(=N)N)C(=O)N[C@@H](Cc1c[nH]c2ccccc12)C(=O)N[C@H](CC(C)C)C(N)=O [RW-BP100-11D] (HELM PEPTIDE1{R.R.L.F.R.R.I.L.R.W.[dL].[am]}$$$$V2.0)")
77.81

Pending compound:
Lookup: I have this compound here, CC[C@H](C)[C@H](NC(=O)[C@H](CCCNC(=N)N)NC(=O)[C@H](CCCNC(=N)N)NC(=O)[C@H](Cc1ccccc1)NC(=O)[C@H](CC(C)C)NC(=O)[C@H](CCCNC(=N)N)NC(=O)[C@@H](N)CCCNC(=N)N)C(=O)N[C@H](CC(C)C)C(=O)N[C@@H](CCCNC(=N)N)C(=O)N[C@@H](Cc1c[nH]c2ccccc12)C(=O)N[C@@H](CC(C)C)C(N)=O [RW-BP100-8D] (HELM PEPTIDE1{R.R.L.F.R.R.I.[dL].R.W.L.[am]}$$$$V2.0) , and I need its recorded Cell survival rate, MAC-T.
Found: 54.78

* * *

# System: RAW264.7 cells
# conditionDetails: peptide 150 μg/mL, 24 h, WST-1, mean ± SD, three repeats
Where a SMILES comes first, the peptide text is derived from it.
measuredProperty: Cell survival rate, RAW264.7 (%)
One number for each entry, in %.

>>> recordedvalue("CC[C@H](C)[C@H](NC(=O)[C@@H](CCCNC(=N)N)NC(=O)[C@H](CCCNC(=N)N)NC(=O)[C@H](Cc1ccccc1)NC(=O)[C@H](CC(C)C)NC(=O)[C@H](CCCNC(=N)N)NC(=O)[C@@H](N)CCCNC(=N)N)C(=O)N[C@@H](CC(C)C)C(=O)N[C@@H](CCCNC(=N)N)C(=O)N[C@@H](Cc1c[nH]c2ccccc12)C(=O)N[C@@H](CC(C)C)C(N)=O [RW-BP100-6D] (HELM PEPTIDE1{R.R.L.F.R.[dR].I.L.R.W.L.[am]}$$$$V2.0)")
5.92
>>> recordedvalue("CC[C@H](C)[C@H](NC(=O)[C@H](CCCNC(=N)N)NC(=O)[C@H](CCCNC(=N)N)NC(=O)[C@H](Cc1ccccc1)NC(=O)[C@H](CC(C)C)NC(=O)[C@@H](CCCNC(=N)N)NC(=O)[C@@H](N)CCCNC(=N)N)C(=O)N[C@@H](CC(C)C)C(=O)N[C@@H](CCCNC(=N)N)C(=O)N[C@@H](Cc1c[nH]c2ccccc12)C(=O)N[C@@H](CC(C)C)C(N)=O [RW-BP100-2D] (HELM PEPTIDE1{R.[dR].L.F.R.R.I.L.R.W.L.[am]}$$$$V2.0)")
6.83

Pending molecule:
Lookup: I have this molecule here, CC[C@H](C)[C@H](NC(=O)[C@H](CCCNC(=N)N)NC(=O)[C@H](CCCNC(=N)N)NC(=O)[C@H](Cc1ccccc1)NC(=O)[C@H](CC(C)C)NC(=O)[C@H](CCCNC(=N)N)NC(=O)[C@H](N)CCCNC(=N)N)C(=O)N[C@@H](CC(C)C)C(=O)N[C@@H](CCCNC(=N)N)C(=O)N[C@@H](Cc1c[nH]c2ccccc12)C(=O)N[C@@H](CC(C)C)C(N)=O [RW-BP100-1D] (HELM PEPTIDE1{[dR].R.L.F.R.R.I.L.R.W.L.[am]}$$$$V2.0) , and I need its recorded Cell survival rate, RAW264.7.
Found: 9.55
